Numbers sourced from patent US8569511B2.

System: NCCIT
experiment.summary: Cell viability assay, cancer cell line panel
Format: cell-based
measurement.conditions: Homo sapiens, mutation PTEN
assay.metric: pIC50
Reminder that pIC50 is minus the log10 of a molar concentration.

Query: // query pIC50 value for entry O=C(Nc1ccc2[nH]nc(-c3nc4ccc(N5CCOCC5)cc4[nH]3)c2c1)C1CC1(F)F (stereo not shown) [Compound 1]
Result: 5.68

* * *

assay.target: PDK1 (Homo sapiens (Human))
Sequence (O15530 whole entry): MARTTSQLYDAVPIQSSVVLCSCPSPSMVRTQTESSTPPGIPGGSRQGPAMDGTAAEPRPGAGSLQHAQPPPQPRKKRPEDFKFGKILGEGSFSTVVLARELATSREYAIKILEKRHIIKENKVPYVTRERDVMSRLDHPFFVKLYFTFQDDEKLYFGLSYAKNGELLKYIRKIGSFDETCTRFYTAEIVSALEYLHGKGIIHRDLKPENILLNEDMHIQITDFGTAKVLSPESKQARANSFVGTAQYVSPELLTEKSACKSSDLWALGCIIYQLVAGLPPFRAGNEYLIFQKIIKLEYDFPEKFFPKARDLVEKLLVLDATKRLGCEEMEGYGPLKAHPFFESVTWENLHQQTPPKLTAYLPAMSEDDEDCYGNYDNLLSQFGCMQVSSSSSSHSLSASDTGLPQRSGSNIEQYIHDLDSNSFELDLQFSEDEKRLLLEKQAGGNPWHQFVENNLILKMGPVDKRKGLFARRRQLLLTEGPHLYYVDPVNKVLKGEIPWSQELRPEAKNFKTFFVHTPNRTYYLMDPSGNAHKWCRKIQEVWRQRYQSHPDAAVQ
experiment.summary: Time resolved-FRET LanthaScreen Kinase Binding Assay
measurement.conditions: TR-FRET Lanthascreen Kinase Binding Assay; read-out: PDK1 Kinase assays (IC50, μM) Binding Assay
# IC50 values compiled below
Quick note: give the figure in µM, leave out the unit.

[
  {
    "compound": "O=C(Nc1ccc2[nH]nc(-c3nc4ccccc4[nH]3)c2c1)c1cccc(F)c1 [Compound 13]",
    "assay.target": "PDK1 (Homo sapiens (Human))",
    "assay.metric": "IC50",
    "observed.result": 8.79
  },
  {
    "compound": "FC(F)(F)c1cccc(-c2ccc3[nH]nc(-c4nc5ccccc5[nH]4)c3c2)c1 [Compound 15]",
    "assay.target": "PDK1 (Homo sapiens (Human))",
    "assay.metric": "IC50",
    "observed.result": 30.3
  },
  {
    "compound": "O=C(Nc1ccc2[nH]nc(-c3nc4ccccc4[nH]3)c2c1)C1CC1 [Compound 7]",
    "assay.target": "PDK1 (Homo sapiens (Human))",
    "assay.metric": "IC50",
    "observed.result": 1.23
  },
  {
    "compound": "O=C(Nc1ccc2[nH]nc(-c3nc4cc(N5CCOCC5)ccc4[nH]3)c2c1)C1CC1 [Compound 3]",
    "assay.target": "PDK1 (Homo sapiens (Human))",
    "assay.metric": "IC50",
    "observed.result": 0.229
  },
  {
    "compound": "O=C(Nc1ccc2[nH]nc(-c3nc4ccccc4[nH]3)c2c1)C1CC1(F)F (centres unmarked) [Compound 8]",
    "assay.target": "PDK1 (Homo sapiens (Human))",
    "assay.metric": "IC50",
    "observed.result": 0.28
  },
  {
    "compound": "CC1CN(c2ccc3nc(-c4n[nH]c5ccc(NC(=O)C6CC6(F)F)cc45)[nH]c3c2)CCO1 (centres unmarked) [Compound 2]",
    "assay.target": "PDK1 (Homo sapiens (Human))",
    "assay.metric": "IC50",
    "observed.result": 0.094
  },
  {
    "compound": "O=C(Nc1cccc2[nH]nc(-c3nc4ccc(N5CCOCC5)cc4[nH]3)c12)C1CC1(F)F (centres unmarked) [Compound 10]",
    "assay.target": "PDK1 (Homo sapiens (Human))",
    "assay.metric": "IC50",
    "observed.result": 0.385
  },
  {
    "compound": "CC(C)(C#N)c1ccc(-c2ccc3[nH]nc(-c4nc5ccccc5[nH]4)c3c2)cc1 [Compound 16]",
    "assay.target": "PDK1 (Homo sapiens (Human))",
    "assay.metric": "IC50",
    "observed.result": 5.17
  },
  {
    "compound": "O=C(Nc1ccc2[nH]nc(-c3nc4ccccc4[nH]3)c2c1)NC1CC1 [Compound 12]",
    "assay.target": "PDK1 (Homo sapiens (Human))",
    "assay.metric": "IC50",
    "observed.result": 0.92
  },
  {
    "compound": "CS(=O)(=O)c1cccc(-c2ccc3[nH]nc(-c4nc5ccccc5[nH]4)c3c2)c1 [Compound 14]",
    "assay.target": "PDK1 (Homo sapiens (Human))",
    "assay.metric": "IC50",
    "observed.result": 15.3
  }
]

Query: Lookup: IC50 / PDK1 (Homo sapiens (Human)) / O=C(Nc1ccc2[nH]nc(-c3nc4ccc(N5CCOCC5)cc4[nH]3)c2c1)C1CC1(F)F (centres unmarked) [Compound 1]
Result: 0.08

Query: Lookup: IC50 / PDK1 (Homo sapiens (Human)) / O=C(Nc1ccc2[nH]nc(-c3nc4cc(CN5CCOCC5)ccc4[nH]3)c2c1)C1CC1(F)F (centres unmarked) [Compound 9]
Result: 1.22

Query: Lookup: IC50 / PDK1 (Homo sapiens (Human)) / O=C(Nc1ccc2[nH]nc(-c3nc4ccccc4[nH]3)c2c1)C1CCC(F)(F)CC1 [Compound 6]
Result: 0.41

Query: Lookup: IC50 / PDK1 (Homo sapiens (Human)) / O=C(Nc1ccc2[nH]nc(-c3nc4cc(N5CCOCC5)ccc4[nH]3)c2c1)C1CCC(F)(F)CC1 [Compound 4]
Result: 0.265

* * *

experiment.summary: Pharmacokinetics in mice (iv and po)
Type: in vivo
measurement.conditions: mouse, plasma, po, at 0.08 hr, read-out: Level detected after oral administration
assay.metric: concentration at 0.08 hr (ng/mL)
Quick note: give the figure in ng/mL, leave out the unit.

Query: // query concentration at 0.08 hr value for entry O=C(Nc1ccc2[nH]nc(-c3nc4ccc(N5CCOCC5)cc4[nH]3)c2c1)C1CC1(F)F (stereo not shown)
Result: 9

* * *

assay.target: PDK1 (Homo sapiens (Human))
experiment.summary: Time resolved-FRET LanthaScreen Kinase Binding Assay
measurement.conditions: tested in triplicate, FIG. 5; read-out: IC50 in PDK1 time resolved-FRET LanthaScreen Kinase Binding Assay
assay.metric: IC50 (nM)
Quick note: give the figure in nM, leave out the unit.

[
  {
    "molecule": "O=C(Nc1ccc2[nH]nc(-c3nc4ccc(N5CCOCC5)cc4[nH]3)c2c1)C1CC1(F)F (centres unmarked)",
    "unit.label": "nM",
    "observed.result": 80
  }
]

Query: // query IC50 value for entry CC1CN(c2ccc3nc(-c4n[nH]c5ccc(NC(=O)C6CC6(F)F)cc45)[nH]c3c2)CCO1 (centres unmarked)
Result: 94

* * *

Test system: H1975
experiment.summary: Cell viability assay, cancer cell line panel
Assay type: cell-based
measurement.conditions: Homo sapiens, NCI-H1975; mutation PIK3CA
assay.metric: pIC50
Reminder that pIC50 is minus the log10 of a molar concentration.

Query: // query pIC50 value for entry O=C(Nc1ccc2[nH]nc(-c3nc4ccc(N5CCOCC5)cc4[nH]3)c2c1)C1CC1(F)F (stereo not shown) [Compound 1]
Result: 5.01

* * *

Tested on: AGS
experiment.summary: Cell viability assay, cancer cell line panel
Assay type: cell-based
measurement.conditions: Homo sapiens, mutation KRAS, PIK3CA
assay.metric: pIC50
Reminder that pIC50 is minus the log10 of a molar concentration.

Query: // query pIC50 value for entry O=C(Nc1ccc2[nH]nc(-c3nc4ccc(N5CCOCC5)cc4[nH]3)c2c1)C1CC1(F)F (stereo not shown)
Result: 5.56

* * *

experiment.summary: Pharmacokinetics in mice (iv and po)
Assay type: in vivo
measurement.conditions: mouse, plasma, po, 30 mg/kg
assay.metric: Tmax
In your response, put the unit directly after the numeric value.

Query: // query Tmax value for entry CC1CN(c2ccc3nc(-c4n[nH]c5ccc(NC(=O)C6CC6(F)F)cc45)[nH]c3c2)CCO1 (stereo not shown) [Compound 2]
Result: 15 min

* * *

assay.target: UniProt:O15530
experiment.summary: PDK1 fluorometric activity assay performed by Life Technologies
Assay type: biochemical
measurement.conditions: fluorometric assay performed by Life Technologies (Table IV); read-out: PDK1 Kinase assays (IC50)
assay.metric: pIC50
Reminder that pIC50 is minus the log10 of a molar concentration.

Here are 6 compounds together with their reported answers.
[
  {
    "compound": "CC1CCN(c2ccc3[nH]c(-c4n[nH]c5ccc(NC(=O)C6CC6(F)F)cc45)nc3c2)CC1 (stereo not shown)",
    "pIC50": 6.11
  },
  {
    "compound": "CS(=O)(=O)c1cccc(-c2ccc3[nH]nc(-c4nc5ccccc5[nH]4)c3c2)c1",
    "pIC50": 4.82
  },
  {
    "compound": "O=C(Nc1ccc2[nH]nc(-c3nc4ccccc4[nH]3)c2c1)C1CCC(F)(F)CC1",
    "pIC50": 6.39
  },
  {
    "compound": "CC(C)(C#N)c1ccc(-c2ccc3[nH]nc(-c4nc5ccccc5[nH]4)c3c2)cc1",
    "pIC50": 5.28
  },
  {
    "compound": "FC(F)(F)c1cccc(-c2ccc3[nH]nc(-c4nc5ccccc5[nH]4)c3c2)c1",
    "pIC50": 4.52
  },
  {
    "compound": "O=C(Nc1cccc2[nH]nc(-c3nc4ccc(N5CCOCC5)cc4[nH]3)c12)C1CC1(F)F (stereo not shown)",
    "pIC50": 6.41
  }
]

Okay, next one:
Query: // query pIC50 value for entry O=C(Nc1ccc2[nH]nc(-c3nc4ccccc4[nH]3)c2c1)C1CC1(F)F (stereo not shown)
Result: 6.55

* * *

assay.target: UniProt O15530
experiment.summary: Time resolved-FRET LanthaScreen Kinase Binding Assay
measurement.conditions: TR-FRET Lanthascreen Kinase Binding Assay; read-out: PDK1 Kinase assays (IC50, μM) Binding Assay
Method: Binding of the tracer to the kinase is detected using a europium-labeled anti-tag antibody, which binds to the kinase of interest. […] Binding of an inhibitor to the kinase competes for binding with the tracer, resulting in a loss of FRET. Activity of compounds was routinely assessed using a secondary assay as described herein. […] After 60 minutes of incubation at room temperature, the TR-FRET signal was measured on an EnVision microplate reader. […]
# IC50 values compiled below

Here are 2 compounds together with their reported answers.
[
  {
    "compound": "O=C(Nc1ccc2c(-c3nc4ccc(N5CCOCC5)cc4[nH]3)n[nH]c2c1)C1CC1(F)F (stereo not drawn)",
    "IC50": "> 100 µM"
  },
  {
    "compound": "O=C(Nc1ccc2[nH]nc(-c3nc4ccccc4[nH]3)c2c1)Nc1ccc(F)cc1F",
    "IC50": "> 100 µM"
  }
]

Okay, next one:
Query: // query IC50 value for entry O=C(Nc1ccc2[nH]nc(-c3nc4ccccc4[nH]3)c2c1)C1CCN(c2ccncc2)CC1
Result: > 100 µM
